The origin of these recorded values is PubChem BioAssay (NCI).

# System: RPMI-8226 leukemia
# assay.name: NCI tumour cell line growth inhibition, 48 h; in the data active = GI50 below about 0.43 µM; inactive = the rest
Lab note: assign the record to one of active, inactive

Query :: In this assay, the call recorded for O=C1Cc2cc(C(=O)NC3C[C@H]4CC[C@@H](C3)N4S(=O)(=O)CC3CCN(CCCC(F)(F)F)CC3)c(Cl)cc2N1 (some centres undefined) was what?
Result :: inactive

Query :: In this assay, the call recorded for COc1ccc(N(C)c2nc(N)nc3sc4c(c23)CCCC4)cc1 was what?
Result :: active

Query :: In this assay, the call recorded for O=C(Nc1nc2ccccc2s1)Nc1ccc([N+](=O)[O-])cc1Cl was what?
Result :: inactive

Query :: In this assay, the call recorded for COc1ccc(N=N/C(C(=O)C(F)(F)F)=C(\O)c2ccc(Cl)cc2)cc1 was what?
Result :: inactive
